test: in vivo
assaySetup: both, Sprague-Dawley, rat, plasma, iv, 0.2 mg/kg
Non-standard residues stand in square brackets, D forms with d. Residues, ends and D or L forms follow the SMILES beside them. d1Nal = N[C@H](Cc1cccc2ccccc12)C(=O)O
quantityName: AUC (ng·h/mL)
Your answer should be a plain number; it is taken to be in ng·h/mL.

Requested field: AUC. Item: CC(C)C[C@@H](NC(=O)[C@H](N)CCCCN)C(=O)N[C@H](Cc1ccccc1)C(=O)N[C@H](CCCNC(=N)N)C(=O)N[C@H](Cc1cccc2ccccc12)C(=O)N[C@H](CCC(N)=O)C(=O)N[C@H](C)C(=O)N[C@H](CCCCN)C(=O)N[C@H](Cc1cccc2ccccc12)C(N)=O [XMP.629] (H-[dK][dL][dF][dR][d1Nal][dQ][dA][dK][d1Nal]-NH2) 744
